System: panel of five flavorists (n=5)
Assay: Taste descriptors (scale 0-9) of sugar base with sweet tasting / sweet taste modulating substances, without (A) and with (B) compound 41 or 57
Assay type: in vivo
Settings: difference between sample B (+1.2 mg/kg compound 57) and sample A; scale 0-9
metric-name: Mouthfeel (0-9), Δ (B-A)
// return just the number, without any unit appended

In the examples that follow, each entry is paired with its recorded Mouthfeel (0-9), Δ (B-A).
COc1ccc([C@@H]2CC(=O)c3c(O)cc(O)cc3O2)cc1O [HT, Hesperetin] = 0.5
COc1ccc([C@H]2Cc3cccc(O)c3C(=O)O2)cc1O [PD, Phyllodulcin] = 1.0
CCCCC(=O)OC[C@H]1O[C@@H](Oc2cc(O)c(C(=O)CCc3ccc(OC)c(O)c3)c(O)c2)[C@H](O)[C@@H](O)[C@@H]1O [Compound 57, 6″-O-Pentanoyl-HG] = 0.5

Then there is this molecule:
stdin: Fill in Mouthfeel (0-9), Δ (B-A) for record O=C(CCc1ccc(O)cc1)c1c(O)cc(O)cc1O [PH, Phloretin]
stdout: 0.5

---

Test system: trained flavourist panel
Test: Sensory profile (impact, intensity, mouthfeel, lingering sweetness) of 5% sucrose solution with added compound
Format: in vivo
Conditions: 5% sucrose solution (A1) + HG 50 ppm, compound 9 15 ppm, 41 5 ppm, 57 3 ppm, 73 5 ppm, 89 5 ppm; sucrose alone scores 4
metric-name: Intensity

Reference set (5 entries):
COc1ccc(CCC(=O)c2c(O)cc(O[C@H]3O[C@@H](CO)[C@H](O)[C@@H](O)[C@@H]3O)cc2O)cc1O [HG, reference compound] = 5
CCCCC(=O)OC[C@H]1O[C@@H](Oc2cc(O)c(C(=O)CCc3ccc(OC)c(O)c3)c(O)c2)[C@H](O)[C@@H](O)[C@@H]1O = 5-6
CCCC(=O)OC[C@H]1O[C@@H](Oc2cc(O)c(C(=O)CCc3ccc(OC)c(O)c3)c(O)c2)[C@H](O)[C@@H](O)[C@@H]1O = 5-6
COc1ccc(CCC(=O)c2c(O)cc(O[C@@H]3O[C@H](COC(C)=O)[C@@H](O)[C@H](O)[C@H]3O)cc2O)cc1O = 4-5
CCCCCC(=O)OC[C@H]1O[C@@H](Oc2cc(O)c(C(=O)CCc3ccc(OC)c(O)c3)c(O)c2)[C@H](O)[C@@H](O)[C@@H]1O = 6-7

stdin: Note Intensity for the molecule shown: CCCCCCC(=O)OC[C@H]1O[C@@H](Oc2cc(O)c(C(=O)CCc3ccc(OC)c(O)c3)c(O)c2)[C@H](O)[C@@H](O)[C@@H]1O
stdout: 6-7

---

Tested on: panel of five flavorists (n=5)
Test: Taste descriptors (scale 0-9) of sugar base with sweet tasting / sweet taste modulating substances, without (A) and with (B) compound 41 or 57
Format: in vivo
Conditions: difference between sample B (+1.2 mg/kg compound 57) and sample A; scale 0-9
metric-name: Onset sweetness (0-9), Δ (B-A)
# output: bare number, no unit

Previously resolved entries follow.
COc1ccc([C@@H]2CC(=O)c3c(O)cc(O)cc3O2)cc1O = 1.0
COc1ccc([C@H]2Cc3cccc(O)c3C(=O)O2)cc1O = 0.5
CCCCC(=O)OC[C@H]1O[C@@H](Oc2cc(O)c(C(=O)CCc3ccc(OC)c(O)c3)c(O)c2)[C@H](O)[C@@H](O)[C@@H]1O = 0.5

Now examine the next entry.
stdin: Give panel of five flavorists (n=5) Onset sweetness (0-9), Δ (B-A) for the following molecule: O=C(CCc1ccc(O)cc1)c1c(O)cc(O)cc1O
stdout: 0.5
